# System: N140
# Experimental Details: qHTS profiling for inhibitors of Plasmodium falciparum proliferation (AID 504749); note: nearly all actives have a fitted effect of over 60% in size
# Test Parameters: P. falciparum in erythrocytes, SYBR Green DNA, 72 h; series mostly up to 28.7 µM
Inconclusive results are not listed. Calls of active or inactive are those of the source. Calls come from the whole dose curve; as a rule, active = well fitted inhibition curve with a large enough effect; inconclusive = small, poorly fitted or top-dose-only effect; inactive = flat fitted curve, though single readings scatter.
Classes used: active, inactive

{"Molecule": "CC(=O)Nc1nnc(S(N)(=O)=O)s1", "Assigned Category": "inactive"}
{"Molecule": "CCN(CC)CCCN(c1ccccc1)C1Cc2ccccc2C1", "Assigned Category": "active"}
{"Molecule": "CN(C)C(=O)Oc1cccc([N+](C)(C)C)c1", "Assigned Category": "inactive"}
{"Molecule": "CCNC(=O)N1CCN(CCCC(c2ccc(F)cc2)c2ccc(F)cc2)CC1", "Assigned Category": "active"}
{"Molecule": "COC(=O)[C@H]1[C@H]2C[C@@H]3c4[nH]c5cc(OC)ccc5c4CCN3C[C@H]2C[C@@H](OC(=O)c2cc(OC)c(OC)c(OC)c2)[C@@H]1OC", "Assigned Category": "active"}
{"Molecule": "Cc1nc2c([nH]1)c(=O)n(C)c(=O)n2Cc1ccco1", "Assigned Category": "inactive"}
{"Molecule": "CN1CCN(C2=Nc3ccccc3Oc3ccc(Cl)cc32)CC1", "Assigned Category": "inactive"}
{"Molecule": "CC(C(=O)O)c1ccc(CC2CCCC2=O)cc1 (stereo not drawn)", "Assigned Category": "inactive"}
{"Molecule": "CCCCNc1ccc(C(=O)OCCN(C)C)cc1", "Assigned Category": "inactive"}
{"Molecule": "C[C@H](CS)C(=O)N1CCC[C@H]1C(=O)O", "Assigned Category": "inactive"}
{"Molecule": "CCOC(=O)C1=C(C)NC(C)=C(C(=O)OC)C1c1cccc([N+](=O)[O-])c1 (stereo not drawn)", "Assigned Category": "active"}
{"Molecule": "COc1ccc([C@@H]2Sc3ccccc3N(CCN(C)C)C(=O)[C@@H]2OC(C)=O)cc1", "Assigned Category": "inactive"}
{"Molecule": "COCCOC(=O)C1=C(C)NC(C)=C(C(=O)OC(C)C)C1c1cccc([N+](=O)[O-])c1 (stereo not drawn)", "Assigned Category": "active"}
{"Molecule": "COC(=O)C1=C(C)NC(C)=C(C(=O)OC(C)(C)CN(C)CCC(c2ccccc2)c2ccccc2)C1c1cccc([N+](=O)[O-])c1 (stereo not drawn)", "Assigned Category": "active"}
{"Molecule": "CCN1CCc2nc(N)oc2CC1", "Assigned Category": "inactive"}
{"Molecule": "C[N+](C)(C)CCOC(=O)CCC(=O)OCC[N+](C)(C)C", "Assigned Category": "inactive"}
{"Molecule": "NC(Cc1ccc(Cl)cc1)C(=O)O (stereo not drawn)", "Assigned Category": "inactive"}
{"Molecule": "Nc1nc(N)c2nc(-c3ccccc3)c(N)nc2n1", "Assigned Category": "inactive"}
{"Molecule": "CN(C(=O)CCCOc1ccc2[nH]c(=O)ccc2c1)C1CCCCC1", "Assigned Category": "inactive"}
{"Molecule": "CC1=C(C)C(=O)C(CCCCC#CCCCC#CCO)=C(C)C1=O", "Assigned Category": "active"}
{"Molecule": "Cc1ccc(S(=O)(=O)NC(=O)NN2CCCCCC2)cc1", "Assigned Category": "inactive"}
{"Molecule": "CN(C)C/C=C(/c1ccc(Br)cc1)c1cccnc1", "Assigned Category": "inactive"}
{"Molecule": "CC(C)(C)c1ccc(C(=O)CCCN2CCC(OC(c3ccccc3)c3ccccc3)CC2)cc1", "Assigned Category": "active"}

The reported measurements were obtained from PubChem BioAssay (NCATS).
